# target.or.system: T1, T11 (Tn-MUC1) (PAPGSTAPPAHGVT(α-GalNAc)SAPDT(α-GalNAc)RPAPG-OH)
# T1 peptide: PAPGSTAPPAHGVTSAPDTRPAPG
# method.summary: glycopeptide array
Reported EC50 values follow for various binders
Quick reminder: number only, in µg/mL, skip the unit.

binder: 82 (antibody, V domains shown) VH: QVQLVQSGAEVKKPGASVKVSCKASGYTFTSYYIHWVRQAPGQGLEWMGVINPYDSSTNYAQKFQGRVTMTRDTSTSTVFMDLSSLRSEDTAVYYCARDNMIGYVLFDYWGQGTLVTVSS
quantity.unit: µg/mL
EC50: 0.227

binder: 174 (antibody, V domains shown) VH: EVQLVESGAEVKKPGASVKVSCKASGYTFNRYYLHWVRQAPGQGLEWMGVINPYDGSTNYAQKFRGRITMTRDTSTNTVYMELSSLRSEDTAVYFCARDAMEGDSYFDKWGQGTLVTVSS
quantity.unit: µg/mL
EC50: 0.192

binder: 21 (antibody, V domains shown) VH: QVQLVQSGAEVRKPGASVKFSCKASGYSFTHYYVHWVRQAPGQGLEWMGVINPFDSSTNYARKFQGRVTMTRDTSTTTVYMDLSSLRSEDTAVYFCARDAMEGDSYFDYWGQGTLVTVSS
quantity.unit: µg/mL
EC50: 0.071

Proceeding to the next binder to report its EC50.
What does the record list as EC50 for 198 (antibody, V domains shown) VH: QVQLVQSGAEVKKPGASVKVSCKASGYTFINNYIQWVRQAPGQGLEWMGVINPYDGSIHYAQKFQGRVTLTRDTSTTTVYMELSSLRSEDTAVYYCARDYMIGYVVFEYWGQGTLVTVSS ?
0.137
